- experimental_system: T1, HLA-A*0201 on T2 cells (human)
- T1 construct: whole, on cells; Class I MHC on the surface of T2 cells, detected with a fluorescent anti-A2 antibody; beta2-microglobulin is not mentioned for this assay; also called MHC class I (A2 allele)
- test_details: T2 cells, wild-type/analog half-maximal binding
Square brackets hold non-standard residues; d marks the D form. Ends that are not written are not given here. Phg = N[C@H](C(=O)O)c1ccccc1; Nle = CCCC[C@H](N)C(=O)O; Nva = CCC[C@H](N)C(=O)O
readout_label: Relative affinity (1/RA)

Study these solved cases before continuing.
FVS[Nle]KIFYV (also called FVS(Nle)KIFYV) [SSX2 41-49 (K41F, A42V, E44Nle)]; 1.1 1/RA
FVSQKIFYV [SSX2 41-49 (K41F, A42V, E44Q)]; 0.4 1/RA
FVSEKLFTV [SSX2 41-49 (K41F, A42V, I46L, Y48T)]; 2.6 1/RA

Tell me the measured Relative affinity (1/RA) of FVSEK[Nle]FYV (also called FVSEK(Nle)FYV) [SSX2 41-49 (K41F, A42V, I46Nle)] , please.
1.1 1/RA

Tell me the measured Relative affinity (1/RA) of FVS[Nva]KIFYV (also called FVS(Nva)KIFYV) [SSX2 41-49 (K41F, A42V, E44Nva)] , please.
3.9 1/RA

Tell me the measured Relative affinity (1/RA) of FVSEKLFYV [SSX2 41-49 (K41F, A42V, I46L)] , please.
1.9 1/RA

Tell me the measured Relative affinity (1/RA) of FVSEKIF[Phg]V (also called FVSEKIF(Phg)V) [SSX2 41-49 (K41F, A42V, Y48Phg)] , please.
2.5 1/RA

Tell me the measured Relative affinity (1/RA) of FVSEKLFSA [SSX2 41-49 (K41F, A42V, I46L, Y48S, V49A)] , please.
2.4 1/RA

Tell me the measured Relative affinity (1/RA) of FVSEKIFTV [SSX2 41-49 (K41F, A42V, Y48T)] , please.
3.8 1/RA

Tell me the measured Relative affinity (1/RA) of FVSEKIFSV [SSX2 41-49 (K41F, A42V, Y48S)] , please.
3.9 1/RA

Tell me the measured Relative affinity (1/RA) of FVSEKIFFV [SSX2 41-49 (K41F, A42V, Y48F)] , please.
1.7 1/RA
